test system: MALME-3M melanoma; assay: NCI tumour cell line growth inhibition, 48 h
Entries annotated with measured TGI
MEASURED ENDPOINT: TGI

{"COMPOUND": "COc1ccc([C@H]2C=C(c3cc(F)c(Cl)cc3Cl)N=c3s/c(=C\\c4ccc(-c5ccc(Cl)cc5Cl)o4)c(=O)n32)cc1", "MEASURED ENDPOINT": "TGI", "RESULT": "> 100 µM"}
{"COMPOUND": "CCOC1=NC(C(F)(F)F)(C(F)(F)F)N=C(/N=C(/N)N(C)C(C(C)C)P(=O)(OC(C)C)OC(C)C)O1 (centres undefined)", "MEASURED ENDPOINT": "TGI", "RESULT": "> 100 µM"}
{"COMPOUND": "CCOC(=O)CCNC(=O)c1cc(C)cc2c1Oc1c(cc(C)cc1C(=O)NCCC(=O)OCC)S2", "MEASURED ENDPOINT": "TGI", "RESULT": "> 100 µM"}
{"COMPOUND": "OC(c1cc2c(Cl)cc(Cl)cc2c2cc(C(F)(F)F)ccc12)C1CCCCN1 (centres undefined)", "MEASURED ENDPOINT": "TGI", "RESULT": "3.91 µM"}
